Entry source: patent US10414754B2

- test.system: Bcl-2 protein (histag-Bcl-2, UniProtKB P10415) (Homo sapiens, UniProt P10415)
- Construct: His tag
- Sequence (P10415 whole entry): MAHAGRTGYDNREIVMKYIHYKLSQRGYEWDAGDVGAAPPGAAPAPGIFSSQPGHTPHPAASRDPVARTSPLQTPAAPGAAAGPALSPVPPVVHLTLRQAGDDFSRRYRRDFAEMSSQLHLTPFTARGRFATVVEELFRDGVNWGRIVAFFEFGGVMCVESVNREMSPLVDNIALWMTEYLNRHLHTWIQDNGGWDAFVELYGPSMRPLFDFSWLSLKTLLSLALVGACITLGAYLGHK
- measurement.description: Inhibition of Bcl-2 by the fluorescence polarisation technique
- Type: binding
- settings: fluorescence polarisation, 2 hours incubation; read-out: IC50 (nM) Bcl-2 FP
Structures can show the parent of a compound that is named as a salt.
metric.name: IC50 (nM)
Enter your answer as a number in nM; do not include the unit.

[
  {
    "molecule": "C[C@@H]1Cc2ccccc2CN1C(=O)c1cc2c(cc1-c1cc(C(=O)N(c3ccccc3)c3ccc(O)cc3)c3n1CCC(N)C3)OCO2 (stereo partly drawn) [Example 15, hydrochloride]",
    "IC50 [nM]": 5.7
  },
  {
    "molecule": "C[C@@H]1Cc2ccccc2CN1C(=O)c1cc2c(cc1-c1cc(C(=O)N(c3ccc(O)cc3)c3cnc4ncnn4c3)c3ccccn13)OCO2 [Example 66]",
    "IC50 [nM]": 4.7
  },
  {
    "molecule": "O=C(c1cc(-c2cc3c(cc2C(=O)N2Cc4ccccc4C[C@H]2CCN2CCOCC2)OCO3)n2c1CCCC2)N(c1ccc(O)cc1)c1ccc(F)c(F)c1 [Example 25, hydrochloride]",
    "IC50 [nM]": 7.9
  },
  {
    "molecule": "C[C@@H]1Cc2ccccc2CN1C(=O)c1cc2c(cc1-c1cc(C(=O)N(c3ccc(O)cc3)c3ccn4ccnc4c3)c3ccccn13)OCO2 [Example 51, hydrochloride]",
    "IC50 [nM]": 4.8
  },
  {
    "molecule": "C[C@@H]1Cc2ccccc2CN1C(=O)c1cc2c(cc1-c1cc(C(=O)N(c3ccc(O)cc3)c3cnn(CCN4CCOCC4)c3)c3ccccn13)OCO2 [Example 45, hydrochloride]",
    "IC50 [nM]": 3.8
  }
]

Now consider the entry below.
Query: IC50; subject: Cc1cc(N(C(=O)c2cc(-c3cc4c(cc3C(=O)N3Cc5ccccc5C[C@H]3C)OCO4)n3ccccc23)c2ccc(O)cc2)ccn1 [Example 32, hydrochloride] 5

----------
- test.system: Bcl-2 protein (histag-Bcl-2, UniProtKB P10415) (Homo sapiens, UniProt P10415)
- Construct: His tag
- measurement.description: Inhibition of Bcl-2 by the fluorescence polarisation technique
- Assay type: binding
- settings: fluorescence polarisation, 2 hours incubation; read-out: IC50 (nM) Bcl-2 FP
- Protocol: The fluorescence polarisation tests were carried out on microplates (384 wells). […] After incubation for 2 hours, the fluorescence polarisation is measured.
Structures can show the parent of a compound that is named as a salt.
Parameter log10 of IC50: see the listing below.
Transform log10 | Measure IC50 | Unit nM

Take a look at these entries with their results.
[
  {
    "compound": "C[C@@H]1Cc2ccccc2CN1C(=O)c1cc2c(cc1-c1cc(C(=O)N(c3ccc(O)cc3)c3cc[n+](C)cc3)c3ccccn13)OCO2",
    "observed.result": 1.69
  },
  {
    "compound": "C[C@@H]1Cc2ccccc2CN1C(=O)c1cc2c(cc1-c1cc(C(=O)N(c3ccc(O)cc3)c3cnc4c(cnn4C)c3)c3ccccn13)OCO2",
    "observed.result": 0.72
  },
  {
    "compound": "C[C@@H]1Cc2ccccc2CN1C(=O)c1cc2c(cc1-c1cc(C(=O)N(C)c3ccc(O)cc3)c3n1CCCC3)OCO2",
    "observed.result": 1.08
  },
  {
    "compound": "CCCCN(C(=O)c1cc(-c2cc3c(cc2C(=O)N2CCc4ccccc4C2)OCO3)n2c1CCCC2)c1ccc(O)cc1",
    "observed.result": 1.89
  },
  {
    "compound": "O=C(c1cc(-c2cc3c(cc2C(=O)N2Cc4ccccc4C[C@H]2CCN2CCOCC2)OCO3)n2c1CCCC2)N(c1ccc(O)cc1)c1cccc(F)c1 [Example 24, hydrochloride]",
    "observed.result": 0.79
  }
]

Query: log10 of IC50; subject: `O=C(c1ccc(Cl)cc1-c1cc(C(=O)N(c2ccc(O)cc2)c2ccc3c(ccn3CCN3CCOCC3)c2)c2n1CCCC2)N1CCc2ccccc2C1` 1.75

----------
- Tested on: RS4;11 leukaemia tumour line
- measurement.description: In vitro cytotoxicity (MTT) on RS4;11
- Type: cell-based
- settings: Homo sapiens; RS4;11 cells, 48 hours exposure
Structures can show the parent of a compound that is named as a salt.
metric.name: IC50 (nM)
Enter your answer as a number in nM; do not include the unit.

Take a look at these entries with their results.
[
  {
    "compound": "C[C@@H]1Cc2ccccc2CN1C(=O)c1cc2c(cc1-c1cc(C(=O)N(c3ccc(O)cc3)c3ccc(CCN4CCC(F)(F)C4)cc3)c3ccccn13)OCO2 [Example 36, hydrochloride]",
    "IC50 / nM": 49.7
  },
  {
    "compound": "C[C@@H]1Cc2ccccc2CN1C(=O)c1cc2c(cc1-c1cc(C(=O)N(c3ccc(O)cc3)c3cnc4c(ccn4C)c3)c3ccccn13)OCO2 [Example 33, hydrochloride]",
    "IC50 / nM": 6.33
  },
  {
    "compound": "N#Cc1cccc(N(C(=O)c2cc(-c3cc4c(cc3C(=O)N3Cc5ccccc5C[C@H]3CCN3CCOCC3)OCO4)n3c2CCCC3)c2ccc(O)cc2)c1 [Example 23, hydrochloride]",
    "IC50 / nM": 9.99
  }
]

Query: IC50; subject: C[C@@H]1Cc2ccccc2CN1C(=O)c1cc2c(cc1-c1cc(C(=O)N(c3ccc(O)cc3)c3ccc(OCCN4CCOCC4)c(F)c3)c3ccccn13)OCO2 [Example 17, hydrochloride] 11.8

Query: IC50; subject: O=C(c1cc(-c2cc3c(cc2C(=O)N2Cc4ccccc4C[C@H]2CCN2CCOCC2)OCO3)n2c1CCCC2)N(c1ccccc1)c1cccc(F)c1 [Example 26, hydrochloride] 300

Query: IC50; subject: COc1ccc(-c2cc(C(=O)N(c3ccccc3)c3ccc(O)cc3)c3n2CCCC3)c(C(=O)N2Cc3ccccc3C[C@H]2CCN2CCOCC2)c1 [Example 29, hydrochloride] 163

Query: IC50; subject: `C[C@@H]1Cc2ccccc2CN1C(=O)c1cc2c(cc1-c1cc(C(=O)N(C)c3ccc(O)cc3)c3n1CCCC3)OCO2` 778

Query: IC50; subject: Cc1ccc(C(=O)N2Cc3ccccc3C[C@H]2CCN2CCOCC2)c(-c2cc(C(=O)N(c3ccccc3)c3ccc(O)cc3)c3n2CCCC3)c1 [Example 19, hydrochloride] 235

Query: IC50; subject: `O=C(c1cc(-c2cc3c(cc2C(=O)N2Cc4ccccc4C[C@H]2CCNCC(F)F)OCO3)n2c1CCCC2)N(c1ccccc1)c1ccc(O)cc1` 26

Query: IC50; subject: `C[C@@H]1Cc2ccccc2CN1C(=O)c1ccccc1-c1cc(C(=O)N(c2ccc(O)cc2)c2cnc3c(ccn3C)c2)c2ccccn12` 20.9

Query: IC50; subject: `O=C(c1cc2c(cc1-c1cc(C(=O)N(c3ccccc3)c3ccc(O)cc3)c3n1CCCC3)OCO2)N1CCc2ccccc2C1` 282

Query: IC50; subject: `CCCCN(CCCC)C(=O)c1cc(-c2cc3c(cc2C(=O)N2Cc4ccccc4C[C@H]2C)OCO3)n2c1CNCC2` 1880

----------
- test.system: Bcl-2 protein (histag-Bcl-2, UniProtKB P10415) (Homo sapiens, UniProt P10415)
- Construct: His tag
- measurement.description: Inhibition of Bcl-2 by the fluorescence polarisation technique
- Type: binding
- settings: fluorescence polarisation, 2 hours incubation; read-out: IC50 (nM) Bcl-2 FP
Structures can show the parent of a compound that is named as a salt.
Parameter IC50: see the listing below.
Remember to put the unit after the number in your answer.

Take a look at these entries with their results.
[
  {
    "molecule": "O=C(c1cc(-c2cc(Cl)ccc2C(=O)N2Cc3ccccc3C[C@H]2CCN2CCOCC2)n2c1CCCC2)N(c1ccc(O)cc1)c1cccc(F)c1 [Example 27, hydrochloride]",
    "IC50": "7.7 nM"
  },
  {
    "molecule": "O=C(c1cc(-c2cc3c(cc2C(=O)N2Cc4ccccc4C[C@H]2CCN2CCOCC2)OCO3)n2c1CCCC2)N(c1ccccc1)c1cccc(F)c1 [Example 26, hydrochloride]",
    "IC50": "16.6 nM"
  },
  {
    "molecule": "COC1CN(CC[C@@H]2Cc3ccccc3CN2C(=O)c2cc3c(cc2-c2cc(C(=O)N(c4ccccc4)c4ccc(O)cc4)c4n2CCCC4)OCO3)C1 [Example 44]",
    "IC50": "2.9 nM"
  },
  {
    "molecule": "O=C(c1cc2c(cc1-c1cc(C(=O)N(c3ccc(O)cc3)c3ccc(OCCN4CCOCC4)c(F)c3)c3ccccn13)OCO2)N1CCc2ccccc2C1 [Example 18, hydrochloride]",
    "IC50": "7.5 nM"
  }
]

Query: IC50; subject: COc1ccc(-c2cc(C(=O)N(c3ccccc3)c3ccc(O)cc3)c3n2CCCC3)c(C(=O)N2Cc3ccccc3C[C@H]2CCN2CCOCC2)c1 [Example 29, hydrochloride] 19 nM
